test_target: SMARCA4 (Homo sapiens, UniProt P51532)
Construct: endogenous in cells; host or cells: NCI-H929 (ATCC CRL-9068)
Sequence (P51532 whole entry): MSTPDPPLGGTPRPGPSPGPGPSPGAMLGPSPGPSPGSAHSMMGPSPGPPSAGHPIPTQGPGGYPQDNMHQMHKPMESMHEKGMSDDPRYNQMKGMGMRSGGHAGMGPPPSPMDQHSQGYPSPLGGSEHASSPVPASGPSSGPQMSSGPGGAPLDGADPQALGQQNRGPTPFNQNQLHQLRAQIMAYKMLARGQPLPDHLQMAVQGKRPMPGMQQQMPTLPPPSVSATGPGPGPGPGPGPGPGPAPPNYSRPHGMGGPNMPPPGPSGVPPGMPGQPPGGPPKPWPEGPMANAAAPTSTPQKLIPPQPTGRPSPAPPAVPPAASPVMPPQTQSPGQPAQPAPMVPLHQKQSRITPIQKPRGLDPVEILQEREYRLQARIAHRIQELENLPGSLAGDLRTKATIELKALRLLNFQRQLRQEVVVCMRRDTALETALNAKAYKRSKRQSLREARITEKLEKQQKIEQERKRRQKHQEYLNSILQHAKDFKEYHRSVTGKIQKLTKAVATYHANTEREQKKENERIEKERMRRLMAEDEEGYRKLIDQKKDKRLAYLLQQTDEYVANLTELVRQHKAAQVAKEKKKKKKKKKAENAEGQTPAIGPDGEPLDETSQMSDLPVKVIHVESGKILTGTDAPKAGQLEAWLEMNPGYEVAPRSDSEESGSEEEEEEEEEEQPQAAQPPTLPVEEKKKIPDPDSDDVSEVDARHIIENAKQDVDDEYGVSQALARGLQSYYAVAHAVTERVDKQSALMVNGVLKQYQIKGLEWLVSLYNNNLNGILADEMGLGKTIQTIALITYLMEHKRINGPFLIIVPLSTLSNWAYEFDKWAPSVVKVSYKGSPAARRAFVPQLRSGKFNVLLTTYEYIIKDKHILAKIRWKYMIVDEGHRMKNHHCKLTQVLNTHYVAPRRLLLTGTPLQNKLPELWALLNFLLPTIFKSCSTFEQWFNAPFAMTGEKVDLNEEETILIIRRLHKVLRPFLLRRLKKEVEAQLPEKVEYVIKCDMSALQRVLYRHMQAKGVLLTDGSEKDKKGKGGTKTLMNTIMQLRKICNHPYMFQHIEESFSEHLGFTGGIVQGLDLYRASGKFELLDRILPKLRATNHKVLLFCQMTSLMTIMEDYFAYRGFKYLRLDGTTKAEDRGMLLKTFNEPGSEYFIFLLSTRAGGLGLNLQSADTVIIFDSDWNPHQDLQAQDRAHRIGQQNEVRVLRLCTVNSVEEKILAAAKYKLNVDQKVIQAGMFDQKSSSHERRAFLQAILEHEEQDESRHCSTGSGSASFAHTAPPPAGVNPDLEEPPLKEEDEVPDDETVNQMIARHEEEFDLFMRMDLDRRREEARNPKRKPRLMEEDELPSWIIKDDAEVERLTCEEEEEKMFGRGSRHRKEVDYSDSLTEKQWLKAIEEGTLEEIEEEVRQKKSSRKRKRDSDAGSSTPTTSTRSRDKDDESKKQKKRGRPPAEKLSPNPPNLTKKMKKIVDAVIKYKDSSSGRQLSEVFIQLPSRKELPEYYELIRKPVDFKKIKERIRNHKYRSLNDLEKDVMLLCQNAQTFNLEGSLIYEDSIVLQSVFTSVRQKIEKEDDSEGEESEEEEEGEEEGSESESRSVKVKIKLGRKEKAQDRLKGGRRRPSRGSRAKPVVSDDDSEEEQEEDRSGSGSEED
protocol_description: SMARCA4 degradation in H929 cells by Western blot
Type: cell-based
particulars: NCI-H929, 100 nM, 16 hours
Method: Determination of SMARCA2 and SMARCA4 Degradation in H929 Cells by Western Blot: NCI-H929 (ATCC CRL-9068) was plated in 6 well plates using complete RPMI-1640 media. Next day, compounds of present invention were added to cells from 10 mM stocks made in DMSO (Sigma Cat no. D2650). […] Percentage of SMARCA2 or SMARCA4 degradation was calculated using formula % Degradation=100−(normalized band intensity in treated sample/normalized band intensity in DMSO sample)*100. […]
observation_type: SMARCA4 percent degradation at 0.1 µM (%)

(a) Cc1ncsc1-c1ccc([C@H](C)NC(=O)[C@@H]2C[C@@H](O)CN2C(=O)[C@@H](NC(=O)CN2CCN(c3cc(-c4ccccc4O)nnc3N)CC2)C(C)C)cc1 [Compound 79]
(b) Cc1ncsc1-c1ccc([C@H](C)NC(=O)[C@@H]2C[C@@H](O)CN2C(=O)[C@@H](NC(=O)CCCCCCCCCC(=O)N2CCN(c3cc(-c4ccccc4O)nnc3N)CC2)C(C)(C)C)cc1 [Compound 38]
*Q* Lab note: check whether a or b has the lower measured SMARCA4 percent degradation at 0.1 µM. // caller expects the label of the chosen entry
*A* b
(b: 17%, a: 99%)

###

test_target: SMARCA4 (Homo sapiens, UniProt P51532)
Construct: endogenous in cells; host or cells: NCI-H929 (ATCC CRL-9068)
protocol_description: SMARCA4 degradation in H929 cells by Western blot
Assay type: cell-based
particulars: NCI-H929, 100 nM, 16 hours
observation_type: SMARCA4 percent degradation at 0.1 µM (%)

| compound | measurement_unit | SMARCA4 percent degradation at 0.1 µM |
| --- | --- | --- |
| Cc1ncsc1-c1ccc([C@H](C)NC(=O)[C@@H]2C[C@@H](O)CN2C(=O)[C@@H](NC(=O)C(C)N2CCN(c3cc(-c4ccccc4O)nnc3N)CC2)C(C)(C)C)cc1 (stereo partly drawn) [Compound 56] | % | 100 |

(A) Cc1ncsc1-c1ccc([C@H](C)NC(=O)[C@@H]2C[C@@H](O)CN2C(=O)[C@@H](NC(=O)C(C)N2CCN(c3cc(-c4ccccc4O)nnc3N)CC2)C(C)(C)C)cc1 (single isomer, unassigned) [Compound 58]
(B) CO[C@@H]1C[C@@H](C(=O)N[C@@H](C)c2ccc(-c3scnc3C)cc2)N(C(=O)[C@@H](NC(=O)CN2CCN(c3cc(-c4ccccc4O)nnc3N)CC2)C(C)(C)C)C1
*Q* # argmax over SMARCA4 percent degradation at 0.1 µM for candidates A and B Lab log: write the label of the selected item as the result.
*A* A

###

test_target: SMARCA2 (Homo sapiens, UniProt P51531)
Sequence (P51531 whole entry): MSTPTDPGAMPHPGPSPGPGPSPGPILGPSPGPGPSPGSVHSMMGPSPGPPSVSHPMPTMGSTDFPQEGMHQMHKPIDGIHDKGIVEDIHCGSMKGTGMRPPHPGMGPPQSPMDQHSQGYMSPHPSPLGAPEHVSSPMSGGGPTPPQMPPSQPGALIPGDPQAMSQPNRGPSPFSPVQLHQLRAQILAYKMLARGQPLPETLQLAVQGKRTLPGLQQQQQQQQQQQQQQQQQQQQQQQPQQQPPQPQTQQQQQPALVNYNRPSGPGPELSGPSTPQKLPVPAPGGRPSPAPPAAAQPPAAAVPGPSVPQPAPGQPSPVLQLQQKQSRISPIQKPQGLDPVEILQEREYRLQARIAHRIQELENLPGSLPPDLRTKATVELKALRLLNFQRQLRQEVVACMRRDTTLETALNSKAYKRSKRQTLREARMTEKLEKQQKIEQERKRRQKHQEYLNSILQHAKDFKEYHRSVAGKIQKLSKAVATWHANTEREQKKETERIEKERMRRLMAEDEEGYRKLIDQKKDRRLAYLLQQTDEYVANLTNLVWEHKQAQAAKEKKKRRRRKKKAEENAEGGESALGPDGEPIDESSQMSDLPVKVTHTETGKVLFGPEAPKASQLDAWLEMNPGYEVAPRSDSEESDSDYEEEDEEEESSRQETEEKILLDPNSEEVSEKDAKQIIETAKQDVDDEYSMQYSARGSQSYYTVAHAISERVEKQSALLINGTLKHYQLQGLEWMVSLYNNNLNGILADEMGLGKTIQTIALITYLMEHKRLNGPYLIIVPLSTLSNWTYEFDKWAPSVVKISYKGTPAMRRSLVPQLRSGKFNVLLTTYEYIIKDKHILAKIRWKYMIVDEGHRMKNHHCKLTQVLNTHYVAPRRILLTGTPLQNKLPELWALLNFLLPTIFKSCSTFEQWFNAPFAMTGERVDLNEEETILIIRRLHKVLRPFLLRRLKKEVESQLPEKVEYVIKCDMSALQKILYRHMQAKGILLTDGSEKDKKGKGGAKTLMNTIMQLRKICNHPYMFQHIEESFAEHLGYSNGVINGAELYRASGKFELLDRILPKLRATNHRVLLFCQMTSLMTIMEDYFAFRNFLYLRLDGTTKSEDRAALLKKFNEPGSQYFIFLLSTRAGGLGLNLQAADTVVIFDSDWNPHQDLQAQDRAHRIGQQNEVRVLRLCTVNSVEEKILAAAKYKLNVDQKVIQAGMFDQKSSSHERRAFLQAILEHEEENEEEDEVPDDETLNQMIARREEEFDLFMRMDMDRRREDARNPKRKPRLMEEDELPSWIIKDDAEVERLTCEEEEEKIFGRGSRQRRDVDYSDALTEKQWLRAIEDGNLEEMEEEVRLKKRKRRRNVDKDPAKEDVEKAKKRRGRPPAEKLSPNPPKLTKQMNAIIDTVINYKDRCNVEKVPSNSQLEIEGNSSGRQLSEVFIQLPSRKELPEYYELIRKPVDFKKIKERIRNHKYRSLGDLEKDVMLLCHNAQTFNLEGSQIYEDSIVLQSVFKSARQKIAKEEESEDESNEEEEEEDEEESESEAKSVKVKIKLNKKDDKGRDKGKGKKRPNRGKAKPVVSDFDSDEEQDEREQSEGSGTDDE
protocol_description: SMARCA2 degradation in H929 cells by Western blot
Format: cell-based
Design: endogenous in cells
particulars: 16 hours
observation_type: SMARCA2 Percent degradation @ 100 nM (%)

| compound | measurement_unit | numeric_readout |
| --- | --- | --- |
| Cc1ncsc1-c1ccc([C@H](C)NC(=O)[C@@H]2C[C@@H](O)CN2C(=O)[C@@H](NC(=O)CC2CCN(c3cc(-c4cc(F)ccc4O)nnc3N)CC2)C(C)(C)C)cc1 | % | 99 |
| Cc1ncsc1-c1ccc(C(NC(=O)[C@@H]2C[C@@H](O)CN2C(=O)[C@@H](NC(=O)CC2CCN(c3cc(-c4cccc(F)c4O)nnc3N)CC2)C(C)(C)C)C(F)(F)F)cc1 (some centres unmarked) | % | 90 |
| Cc1ncsc1-c1ccc([C@H](C)NC(=O)[C@@H]2C[C@@H](O)CN2C(=O)[C@@H](NC(=O)CC2CCN(c3cc(-c4cccc(F)c4O)nnc3N)CC2)C(C)(C)C)cc1 | % | 88 |
| Cc1ncsc1-c1ccc([C@H](C)NC(=O)[C@@H]2C[C@@H](O)CN2C(=O)[C@@H](NC(=O)CN2CCN(c3cc(-c4cccc(F)c4O)nnc3N)CC2)C(C)(C)C)cc1 | % | 100 |
| CC(=O)O[C@@H]1C[C@@H](C(=O)N[C@@H](C)c2ccc(-c3scnc3C)cc2)N(C(=O)[C@@H](NC(=O)CN2CCN(c3cc(-c4ccccc4O)nnc3N)CC2)C(C)(C)C)C1 | % | 87 |
